Where these numbers come from: paper PMC9848300

# System: SF-539
# ASSAY: NCI 60 antitumor screening (single dose / five doses)
# Assay type: cell-based
# CONDITION: Homo sapiens; SF-539 (CNS cancer), single dose 10 μM; read-out: Growth inhibition percentage (GI %)
OUTCOME_MEASURE: inhibition at 10 µM

The examples below pair each entry with its known result.
{"MOLECULE": "Brc1ccccc1/C=N/Nc1nc(N/N=C/c2ccccc2Br)nc(N2CCCCC2)n1", "OBSERVED": "2.62%"}
{"MOLECULE": "O=C(NNc1nc(NNC(=O)c2ccccc2)nc(N2CCOCC2)n1)c1ccccc1", "OBSERVED": "2.56%"}
{"MOLECULE": "Clc1cccc(/C=N/Nc2nc(N/N=C/c3cccc(Cl)c3Cl)nc(N3CCOCC3)n2)c1Cl", "OBSERVED": "44.2%"}

Value sought for every listed molecule: inhibition at 10 µM.
1. Clc1cccc(/C=N/Nc2nc(N/N=C/c3cccc(Cl)c3)nc(N3CCOCC3)n2)c1
2. Oc1ccc(/C=N/Nc2nc(N/N=C/c3ccc(O)c(O)c3)nc(N3CCCCC3)n2)cc1O
3. COC(=O)C(Cc1ccccc1)Nc1nc(NC(Cc2ccccc2)C(=O)OC)nc(N2CCOCC2)n1 (centres unmarked)

["56.4%", "1.16%", "1.99%"]

Value sought for every listed molecule: inhibition at 10 µM.
1. Fc1cccc(Cl)c1/C=N/Nc1nc(N/N=C/c2c(F)cccc2Cl)nc(N2CCOCC2)n1
2. CN(C)c1ccc(/C=N/Nc2nc(N/N=C/c3ccc(N(C)C)cc3)nc(N3CCOCC3)n2)cc1

1. 7.53%
2. 3.33%
